IC50 listing for selected molecules.
- system-under-test: human A2B receptors (Homo sapiens (Human))
- Sequence (P29275 whole entry): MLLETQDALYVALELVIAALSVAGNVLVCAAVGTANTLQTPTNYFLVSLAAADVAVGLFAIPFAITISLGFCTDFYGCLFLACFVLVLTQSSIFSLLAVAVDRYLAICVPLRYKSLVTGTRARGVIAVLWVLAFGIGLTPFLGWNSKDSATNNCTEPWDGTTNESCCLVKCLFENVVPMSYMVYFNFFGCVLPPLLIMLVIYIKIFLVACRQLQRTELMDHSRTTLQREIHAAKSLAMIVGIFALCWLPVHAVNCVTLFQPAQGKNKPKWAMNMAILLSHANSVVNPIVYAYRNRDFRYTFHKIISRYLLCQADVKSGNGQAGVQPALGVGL
- assay-protocol: A2B antagonism in cAMP cell-based assay (LANCE cAMP, HEK293)
- test-context: HEK293 cells expressing human A2B receptor
Form entry: value (µM) — number only.

Solved cases below.
[
  {
    "molecule": "CC(O)C(C)n1cc(N2CC(c3nc4c5cc(F)cc(F)c5nc(N)n4n3)CCC2C)cn1 (single isomer, unassigned) [Example 234]",
    "unit-tag": "µM",
    "IC50": 1.2
  },
  {
    "molecule": "COc1cc(F)cc2c1nc(N)n1nc(C3CC(C)CN(c4cnn(C(C)C(C)O)c4C)C3)nc21 (single isomer, unassigned) [Example 221]",
    "unit-tag": "µM",
    "IC50": 0.063
  },
  {
    "molecule": "COc1cc2nc(N)n3nc(C4CC(C)CN(c5cnn(C(C)(C)CO)c5)C4)nc3c2cc1F (racemic) [Example 156]",
    "unit-tag": "µM",
    "IC50": 0.358
  }
]

Lookup result for CC(O)C(C)n1cc(N2CCC[C@@H](c3nc4c5cc(F)cc(F)c5nc(N)n4n3)C2)cn1 (single isomer, unassigned) [Example 198] ; measured IC50: 0.0524

Lookup result for COc1cc2nc(N)n3nc(C4CCC(C)N(c5cnn(C(C)(CO)CO)c5)C4)nc3c2cc1F (single isomer, unassigned) [Example 250] ; measured IC50: 0.0049

Lookup result for COc1cc(F)cc2c1nc(N)n1nc([C@@H]3CCCN(c4cnn(C(C)C(C)O)c4C)C3)nc21 (single isomer, unassigned) [Example 193] ; measured IC50: 0.251

Lookup result for COc1cc2nc(N)n3nc([C@@H]4CCCN(c5cnn(C(C)(C)C(C)O)c5)C4)nc3c2cc1F (single isomer, unassigned) [Example 242] ; measured IC50: 0.0349

Lookup result for COc1cc(F)cc2c1nc(N)n1nc(C3CC(C)CN(c4cnn(CC(C)(C)O)c4)C3)nc21 (single isomer, unassigned) [Example 159] ; measured IC50: 0.0293

====

Reported pIC50 for target or system human A2b adenosine receptor (Homo sapiens (Human)), by entry.
pIC50 is a log-scale quantity: -log10 of the concentration expressed in molar.

[
  {
    "compound": "COc1cc2nc(N)n3nc([C@@H]4CCCN(c5cn(CS(C)(=O)=O)nc5C(F)F)C4)nc3c2cc1F [Example 132]",
    "system-under-test": "human A2b adenosine receptor (Homo sapiens (Human))",
    "pIC50": 6.62
  },
  {
    "compound": "COc1cc2nc(N)n3nc([C@@H]4C[C@@H](C)CN(c5cnn(CC(C)(C)O)c5)C4)nc3c2cc1F (single isomer, unassigned) [Example 92]",
    "system-under-test": "human A2b adenosine receptor (Homo sapiens (Human))",
    "pIC50": 6.22
  }
]

pIC50 for human A2b adenosine receptor (Homo sapiens (Human)) with input COc1cc2nc(N)n3nc([C@@H]4CCCN(c5cnn(C6CCCC6O)c5)C4)nc3c2cc1F (single isomer, unassigned) [Example 85] equals 6.72

pIC50 for human A2b adenosine receptor (Homo sapiens (Human)) with input COc1cc(F)cc2c1nc(N)n1nc(C3CCC(C)N(c4cnn(CC(C)(C)O)c4)C3)nc21 (single isomer, unassigned) [Example 121] equals 5.27

pIC50 for human A2b adenosine receptor (Homo sapiens (Human)) with input COc1ccc(N2CCC[C@@H](c3nc4c5cc(F)cc(OC)c5nc(N)n4n3)C2)cn1 [Example 34] equals 7.53

pIC50 for human A2b adenosine receptor (Homo sapiens (Human)) with input COc1cc2nc(N)n3nc(C4CN(c5cnn(CC(C)(C)O)c5C)CCS4(=O)=O)nc3c2cc1F (single isomer, unassigned) [Example 144] equals 5.15

====

log10 IC50 listing for selected molecules.
- system-under-test: UniProt P29275
Lab note - IC50 converted to log10 from values in nM.

Solved cases below.
[
  {
    "molecule": "CCn1cc(N2CCC[C@@H](c3nc4c5cc(F)c(OC)cc5nc(N)n4n3)C2)c(CO)n1",
    "reported-measurement": 2.21
  },
  {
    "molecule": "COc1cc(F)cc2c1nc(N)n1nc([C@@H]3CCCN(c4cnn(CC(C)(C)O)c4C)C3)nc21",
    "reported-measurement": 2.48
  },
  {
    "molecule": "COc1cc2nc(N)n3nc(C4CCC(C)N(c5cnn(C(C)(C)CO)c5)C4)nc3c2cc1F (single isomer, unassigned) [Example 126]",
    "reported-measurement": 3.33
  }
]

log10 IC50 for UniProt P29275 with input COc1cc2nc(N)n3nc([C@@H]4CCCN(c5cnn(C6CCOCC6)c5C(F)F)C4)nc3c2cc1F equals 1.13

log10 IC50 for UniProt P29275 with input COc1cc2nc(N)n3nc(C4CCC(C)N(c5cnn(C(C)(C)CO)c5)C4)nc3c2cc1F (single isomer, unassigned) [Example 128] equals 0.38

log10 IC50 for UniProt P29275 with input COc1cc(F)cc2c1nc(N)n1nc(C3CCC(C)N(c4cnn(C(C)(C)CO)c4)C3)nc21 (single isomer, unassigned) equals 3.31

log10 IC50 for UniProt P29275 with input COc1cc2nc(N)n3nc([C@@H]4CCCN(c5ccc(OC(C)C)nc5)C4)nc3c2cc1F equals 1.20

====

- system-under-test: UniProtKB P29275
- assay-protocol: A2b radioligand filtration binding assay
- test-context: membranes from HEK293 cells expressing human A2b receptor
pIC50: −log10 of the molar value.
Entries get a class label from measured pIC50. See ranges: label 0 = under 6, label 1 = from 6 up to 7, label 2 = 7 and over

[
  {
    "compound": "COc1cc2nc(N)n3nc(C4CCC(C)N(c5cn(CC(C)(C)O)nc5C)C4)nc3c2cc1F (stereo not shown)",
    "assigned-category": "label 0"
  },
  {
    "compound": "COc1cc2nc(N)n3nc([C@@H]4CCCN(c5cnn(CCCC(C)O)c5)C4)nc3c2cc1F (single isomer, unassigned)",
    "assigned-category": "label 0"
  },
  {
    "compound": "COc1cc(F)cc2c1nc(N)n1nc(C3CCC(C)N(c4cnn(CC(C)(C)O)c4)C3)nc21 (single isomer, unassigned) [Example 120]",
    "assigned-category": "label 2"
  },
  {
    "compound": "COc1cc2nc(N)n3nc([C@@H]4CCCN(c5cnn(C(C)(C)C)c5)C4)nc3c2cc1F",
    "assigned-category": "label 1"
  },
  {
    "compound": "COc1cc2nc(N)n3nc([C@@H]4CCCN(c5cnc(OC(F)F)c(C)c5)C4)nc3c2cc1F",
    "assigned-category": "label 1"
  }
]

Inquiry: Into which bin does this compound go? COc1cc2nc(N)n3nc([C@@H]4CCCN(c5cn(C(C)(C)CO)nc5C)C4)nc3c2cc1F
Reply text: label 2

====

pIC50 listing for selected compounds.
- system-under-test: human A2B receptors (Homo sapiens (Human))
- assay-protocol: A2B antagonism in cAMP cell-based assay (LANCE cAMP, HEK293)
- test-context: HEK293 cells expressing human A2B receptor
pIC50 is a log-scale quantity: -log10 of the concentration expressed in molar.

Lookup result for Cc1c(N2CC(C)CC(c3nc4c5cc(F)cc(F)c5nc(N)n4n3)C2)cnn1C(C)C(C)O (single isomer, unassigned) [Example 216] ; measured pIC50: 6.80

Lookup result for Cc1c(N2CC(C)CC(c3nc4c5cc(F)cc(F)c5nc(N)n4n3)C2)cnn1C(C)C(C)O (single isomer, unassigned) [Example 218] ; measured pIC50: 5.24

Lookup result for COc1cc(F)cc2c1nc(N)n1nc([C@@H]3CCCN(c4cn(C(C)C(C)O)nc4C)C3)nc21 (single isomer, unassigned) [Example 190] ; measured pIC50: 7.25

Lookup result for COc1cc2nc(N)n3nc(C4CCC(C)N(c5cnn(C(C)(C)C(C)O)c5)C4)nc3c2cc1F (single isomer, unassigned) [Example 267] ; measured pIC50: 5.92

Lookup result for COc1cc(F)cc2c1nc(N)n1nc([C@@H]3CCCN(c4cnn(C(C)(C)C(C)O)c4)C3)nc21 (single isomer, unassigned) [Example 244] ; measured pIC50: 7.73

====

- system-under-test: human A2A receptors (Homo sapiens (Human), UniProt P29274)
- Sequence (P29274 whole entry): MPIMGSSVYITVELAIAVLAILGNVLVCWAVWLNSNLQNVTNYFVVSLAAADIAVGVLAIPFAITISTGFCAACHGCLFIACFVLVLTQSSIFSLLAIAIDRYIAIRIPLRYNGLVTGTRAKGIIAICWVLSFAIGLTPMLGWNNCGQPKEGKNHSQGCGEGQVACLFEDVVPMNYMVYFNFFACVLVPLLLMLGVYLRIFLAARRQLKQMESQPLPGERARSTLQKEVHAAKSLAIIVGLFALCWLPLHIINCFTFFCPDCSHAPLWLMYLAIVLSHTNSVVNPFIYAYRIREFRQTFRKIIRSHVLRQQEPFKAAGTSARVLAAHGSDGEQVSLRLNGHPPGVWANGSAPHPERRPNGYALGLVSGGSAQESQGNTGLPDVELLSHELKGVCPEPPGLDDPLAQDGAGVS
- assay-protocol: A2A antagonism in cAMP cell-based assay (LANCE cAMP, HEK293)
- test-context: HEK293 cells expressing human A2A receptor
assay-endpoint: IC50 (nM)
Form entry: value (nM) — number only.

Solved cases below.
[
  {
    "molecule": "COc1cc(F)cc2c1nc(N)n1nc([C@@H]3CCCN(c4cnn(C(C)(C)C(C)O)c4)C3)nc21 (single isomer, unassigned) [Example 245]",
    "unit-tag": "nM",
    "reported-measurement": 2
  },
  {
    "molecule": "COc1cc2nc(N)n3nc([C@@H]4CCCN(c5cnn(CCC(C)(C)O)c5)C4)nc3c2cc1F",
    "unit-tag": "nM",
    "reported-measurement": 5.9
  },
  {
    "molecule": "COc1cc(F)cc2c1nc(N)n1nc(C3CC(C)CN(c4cnn(CC(C)(C)O)c4)C3)nc21 (single isomer, unassigned) [Example 160]",
    "unit-tag": "nM",
    "reported-measurement": 8.7
  },
  {
    "molecule": "CC1CC(c2nc3c4cc(F)cc(F)c4nc(N)n3n2)CN(c2cnn(C(C)(C)CO)c2)C1 (single isomer, unassigned) [Example 180]",
    "unit-tag": "nM",
    "reported-measurement": 54
  },
  {
    "molecule": "Cc1nn(C(C)(C)CO)cc1N1CC(C)CC(c2nc3c4cc(F)cc(F)c4nc(N)n3n2)C1 (single isomer, unassigned) [Example 178]",
    "unit-tag": "nM",
    "reported-measurement": 0.6
  },
  {
    "molecule": "CCC(C)(O)Cn1cc(N2CCC[C@@H](c3nc4c5cc(F)c(OC)cc5nc(N)n4n3)C2)cn1 (single isomer, unassigned) [Example 183]",
    "unit-tag": "nM",
    "reported-measurement": 2
  }
]

IC50 for human A2A receptors (Homo sapiens (Human), UniProt P29274) with input COc1cc(F)cc2c1nc(N)n1nc(C3CC(C)CN(c4cnn(C(C)C(C)O)c4C)C3)nc21 (single isomer, unassigned) [Example 223] equals 0.7

IC50 for human A2A receptors (Homo sapiens (Human), UniProt P29274) with input COc1cc2nc(N)n3nc([C@@H]4CCCN(c5cnn(C(C)C(C)O)c5)C4)nc3c2cc1F (single isomer, unassigned) [Example 199] equals 2.5

IC50 for human A2A receptors (Homo sapiens (Human), UniProt P29274) with input COc1cc(F)cc2c1nc(N)n1nc(C3CC(C)CN(c4cn(C(C)(C)C(C)O)nc4C)C3)nc21 (single isomer, unassigned) [Example 206] equals 13

IC50 for human A2A receptors (Homo sapiens (Human), UniProt P29274) with input COc1cc(F)cc2c1nc(N)n1nc([C@@H]3CCCN(c4cnn(C(C)C(C)O)c4C)C3)nc21 (single isomer, unassigned) [Example 193] equals 1.3

Just for reference, patent US11312719B2 is where these values come from.
